# MEASUREMENT TARGET: mouse ADAMTS7 (Mus musculus)
# Construct: Full-length mouse Adamts7 1-1857 (Uniprot Q68SA9, WT or E373Q catalytic mutant); expressed in transfected cells; host or cells: Human Coronary Artery Smooth Muscle Cells (HCA-SMC, Lonza), adenovirus 50 MOI
# Sequence (Q68SA9 221-1657): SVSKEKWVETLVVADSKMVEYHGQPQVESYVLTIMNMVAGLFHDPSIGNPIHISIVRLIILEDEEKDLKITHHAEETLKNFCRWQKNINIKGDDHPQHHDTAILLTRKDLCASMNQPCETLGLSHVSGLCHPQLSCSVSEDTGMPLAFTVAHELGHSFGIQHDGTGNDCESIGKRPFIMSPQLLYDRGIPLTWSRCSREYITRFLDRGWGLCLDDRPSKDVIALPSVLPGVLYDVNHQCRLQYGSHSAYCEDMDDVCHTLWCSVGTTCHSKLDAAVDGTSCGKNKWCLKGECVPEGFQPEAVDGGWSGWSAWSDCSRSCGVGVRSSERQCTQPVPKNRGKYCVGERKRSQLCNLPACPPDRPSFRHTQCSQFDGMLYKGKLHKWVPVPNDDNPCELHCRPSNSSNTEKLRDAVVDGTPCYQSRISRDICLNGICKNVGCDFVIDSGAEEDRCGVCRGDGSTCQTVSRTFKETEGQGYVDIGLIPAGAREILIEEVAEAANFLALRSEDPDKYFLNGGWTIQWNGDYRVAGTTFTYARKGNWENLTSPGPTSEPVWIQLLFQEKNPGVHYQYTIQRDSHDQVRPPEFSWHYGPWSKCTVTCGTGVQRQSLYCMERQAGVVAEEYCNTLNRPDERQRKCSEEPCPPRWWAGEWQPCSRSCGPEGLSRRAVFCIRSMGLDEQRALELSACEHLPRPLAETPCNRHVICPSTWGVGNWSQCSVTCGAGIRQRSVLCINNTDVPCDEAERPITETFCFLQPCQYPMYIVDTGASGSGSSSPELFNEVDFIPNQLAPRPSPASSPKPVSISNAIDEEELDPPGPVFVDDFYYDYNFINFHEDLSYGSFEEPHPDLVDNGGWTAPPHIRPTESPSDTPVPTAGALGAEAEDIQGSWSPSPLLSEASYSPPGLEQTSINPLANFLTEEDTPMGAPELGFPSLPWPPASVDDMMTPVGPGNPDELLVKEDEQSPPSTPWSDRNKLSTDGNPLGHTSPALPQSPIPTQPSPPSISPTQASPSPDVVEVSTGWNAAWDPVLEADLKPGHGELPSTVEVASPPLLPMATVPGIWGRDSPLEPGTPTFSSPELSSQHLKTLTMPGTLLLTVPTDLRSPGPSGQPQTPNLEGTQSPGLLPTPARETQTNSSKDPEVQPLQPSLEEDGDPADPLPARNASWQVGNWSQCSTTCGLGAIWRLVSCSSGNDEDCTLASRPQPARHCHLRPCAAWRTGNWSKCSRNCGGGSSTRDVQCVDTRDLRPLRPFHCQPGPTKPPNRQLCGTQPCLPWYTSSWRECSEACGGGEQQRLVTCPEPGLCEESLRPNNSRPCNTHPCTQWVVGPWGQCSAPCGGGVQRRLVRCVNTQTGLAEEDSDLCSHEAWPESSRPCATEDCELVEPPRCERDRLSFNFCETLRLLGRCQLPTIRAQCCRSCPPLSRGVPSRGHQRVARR
# TEST NAME: TMT10 TAILS N-terminomics, SMC2 experiment (process replicates, trypsin/AspN digest)
# Assay type: cell-based
# TEST CONDITIONS: SMC2_TAILS HC; log fold change of N-terminal peptide, Ad-mADAMTS7 WT over Luc
MEASURED PROPERTY: logFC.mWT.over.Luc

Field: example entries. Status: answers known.
[
  {
    "SUBSTANCE": "MAP4_815 (AVASTGPSSR; listed as Homo sapiens)",
    "MEASUREMENT TARGET": "mouse ADAMTS7 (Mus musculus)",
    "logFC.mWT.over.Luc": 1.68
  },
  {
    "SUBSTANCE": "LTBP1_540 (HQQVIPHVYPVAAKTQLGR; listed as Homo sapiens)",
    "MEASUREMENT TARGET": "mouse ADAMTS7 (Mus musculus)",
    "logFC.mWT.over.Luc": 1.82
  },
  {
    "SUBSTANCE": "NID2_291 (HSSVPLGR; listed as Homo sapiens)",
    "MEASUREMENT TARGET": "mouse ADAMTS7 (Mus musculus)",
    "logFC.mWT.over.Luc": 3.16
  },
  {
    "SUBSTANCE": "SHC2_267 (VAKDPINQRACHIL; listed as Homo sapiens)",
    "MEASUREMENT TARGET": "mouse ADAMTS7 (Mus musculus)",
    "logFC.mWT.over.Luc": 1.89
  },
  {
    "SUBSTANCE": "LTBP3_103 (LTGSGFR; listed as Homo sapiens)",
    "MEASUREMENT TARGET": "mouse ADAMTS7 (Mus musculus)",
    "logFC.mWT.over.Luc": 4.80
  },
  {
    "SUBSTANCE": "PTPRF_1859 (MRYEGVVDMFQTVKTLR; listed as Homo sapiens)",
    "MEASUREMENT TARGET": "mouse ADAMTS7 (Mus musculus)",
    "logFC.mWT.over.Luc": 2.51
  },
  {
    "SUBSTANCE": "NID2_951 (YAYPGAR; listed as Homo sapiens)",
    "MEASUREMENT TARGET": "mouse ADAMTS7 (Mus musculus)",
    "logFC.mWT.over.Luc": 2.73
  },
  {
    "SUBSTANCE": "MMP1_100 (FVLTEGNPR; listed as Homo sapiens)",
    "MEASUREMENT TARGET": "mouse ADAMTS7 (Mus musculus)",
    "logFC.mWT.over.Luc": 2.35
  }
]

[1] VCAN_3367 (FKNSSSAK; listed as Homo sapiens)
[2] LOXL2_45 (HQPQAPANVAKIQLR; listed as Homo sapiens)
Prompt line: Of 1 and 2 , which carries the smaller reported logFC.mWT.over.Luc figure? State your choice using its label.
Response line: 1

Reference source for all entries: patent US20240368668A1
